- Assay Explanation: Toxicokinetics: plasma DAC by LC-MS/MS after oral gavage
- Assay type: in vivo, CD-1 mice
- Condition: male, CD-1, mouse, plasma, po, 0.2 mg/kg, AUCfit, males; THU/DAC 167/0.2 mg/kg; Day 1
Property Label: AUC (µM·h)
# value in µM·h; strip the unit string

Fill blank: measured AUC of the compound Nc1ncn([C@H]2C[C@H](O)[C@@H](CO)O2)c(=O)n1 is ____.
1.57

====

- Assay Explanation: Toxicokinetics: plasma DAC by LC-MS/MS after oral gavage
- Format: in vivo, CD-1 mice
- Condition: male, CD-1, mouse, plasma, po, 0.2 mg/kg, Cmax, males; THU/DAC 167/0.2 mg/kg; Day 58
Property Label: Cmax (nM)
Dear colleague, please return just the value in nM, with no unit written.

Look up Cmax: Nc1ncn([C@H]2C[C@H](O)[C@@H](CO)O2)c(=O)n1 [DAC, 5-aza-2’-deoxycytidine]
700

====

- Assay Explanation: Toxicokinetics: plasma DAC by LC-MS/MS after oral gavage
- Format: in vivo, CD-1 mice
- Condition: male, CD-1, mouse, plasma, po, 1 mg/kg, Cmax, males; THU/DAC 167/1.0 mg/kg; Day 1
Property Label: Cmax (µM)
Give your result in µM as a bare value.

For Nc1ncn([C@H]2C[C@H](O)[C@@H](CO)O2)c(=O)n1 , what is its reported Cmax?
5.81

====

- Assay Explanation: Toxicokinetics: plasma DAC by LC-MS/MS after oral gavage
- Assay type: in vivo, CD-1 mice
- Condition: male, CD-1, mouse, plasma, po, 0.4 mg/kg, AUCfit, males; THU/DAC 167/0.4 mg/kg; Day 1
Property Label: AUC (µM·h)
Output spec: scalar in µM·h, unitless text.

What value of AUC has been recorded for this entry: Nc1ncn([C@H]2C[C@H](O)[C@@H](CO)O2)c(=O)n1
3.08

====

- Assay Explanation: Toxicokinetics: plasma DAC by LC-MS/MS after oral gavage
- Type: in vivo, CD-1 mice
- Condition: female, CD-1, mouse, plasma, po, 0.4 mg/kg, Cmax, females; THU/DAC 167/0.4 mg/kg; Day 1
Property Label: Cmax (nM)
Answer with a number only, understood to be in nM.

Fill blank: measured Cmax of the compound Nc1ncn([C@H]2C[C@H](O)[C@@H](CO)O2)c(=O)n1 is ____.
2780

====

- Assay Explanation: Toxicokinetics: plasma DAC by LC-MS/MS after oral gavage
- Type: in vivo, CD-1 mice
- Condition: male, CD-1, mouse, plasma, po, 0.2 mg/kg, AUCfit, males; THU/DAC 167/0.2 mg/kg; Day 58
Property Label: AUC (µM·h)
Field: numeric (µM·h). Do not append units.

What does the record list as AUC for Nc1ncn([C@H]2C[C@H](O)[C@@H](CO)O2)c(=O)n1 ?
1.25

====

- Assay Explanation: Toxicokinetics: plasma DAC by LC-MS/MS after oral gavage
- Assay type: in vivo, CD-1 mice
- Condition: male, CD-1, mouse, plasma, po, 0.4 mg/kg, AUCfit, males; THU/DAC 167/0.4 mg/kg; Day 58
Property Label: AUC
Respond with the figure and its unit, in that order.

Any idea what AUC was measured for Nc1ncn([C@H]2C[C@H](O)[C@@H](CO)O2)c(=O)n1 ?
2.11 µM·h

====

- Assay Explanation: Toxicokinetics: plasma DAC by LC-MS/MS after oral gavage
- Format: in vivo, CD-1 mice
- Condition: male, CD-1, mouse, plasma, po, 1 mg/kg, AUCfit, males; THU/DAC 0/1.0 mg/kg; Day 1
Property Label: AUC

I'd like to know its AUC. The molecule in question is Nc1ncn([C@H]2C[C@H](O)[C@@H](CO)O2)c(=O)n1 [DAC, 5-aza-2’-deoxycytidine]
0.864 µM·h
